tested on: SW837 cells; assay: SN-38 dose response after siRNA transfection, viability (CTG); format: cell-based; conditions: Homo sapiens, SW837, CHEK2 siRNA pool; SN-38 added after 30 h, viability 72 h later; read-out: IC50 in SW837, siCHEK2
result type: pIC50
Keep it numeric: pIC50 is minus log10 of the concentration in mol/L.

Tested on SW837 cells, the item CCc1c2c(nc3ccc(O)cc13)-c1cc3c(c(=O)n1C2)COC(=O)[C@]3(O)CC [SN-38] showed pIC50 equal to 7.18

* * *

System: SNU-81 cells
Test: SN-38 dose response after siRNA transfection, viability (CTG)
Assay type: cell-based
Settings: CHEK2 siRNA pool; SN-38 added after 30 h, viability 72 h later; read-out: IC50 in SNU-81, siCHEK2
From the text: For siRNA experiments, SW837 and SNU-81 cells (8,000 and 16,000 cells per well, respectively) were reverse transfected with siRNAs of a non-targeting pool as negative control (siNT; Dharmacon, D-001810-10-5), polo-like kinase 1 (PLK1) pool as positive control (Dharmacon, L-003290-00-0010), CHEK1 pool (Dharmacon, L-003255-00-0005) or four individual CHEK1 siRNAs (LQ-003255-00-0005), and CHEK2 pool (Dharmacon, L-003256-00-0005) using lipofectamine RNAiMax (Thermofisher). […]
result type: IC50 (nM)
Numeric answer only, unit nM assumed.

Per the records, this compound ( CCc1c2c(nc3ccc(O)cc13)-c1cc3c(c(=O)n1C2)COC(=O)[C@]3(O)CC [SN-38] ) has IC50 equal to 715
